Would you mind telling me the reported AUC(0-inf) of each entry?
Experiment: Pharmacokinetic properties in dogs
Format: in vivo
Settings: dog, po; male Beagle dogs, 3 mg/kg p.o., plasma
Procedure: Each test compounds was suspended in 0.5% methylcellulose (400 cP, w/v) in water. Grouping male Beagle dogs was administered with test compound at a dose of 3 mg/kg by oral. After administering, blood samples were collected at time points of 0.25, 0.50, 1.0, 2.0, 4.0, 8.0 and 24.0 h. Standard curve was plotted based on concentrations of the samples in a suitable range, and the concentration of test compounds in plasma samples were determined by using LC-MS/MS. […]
Give just the numeric value; µg·h/mL need not be written.

Retrieve AUC(0-inf) measured for CN1CCN(c2ccc(Nc3ncc4sc(C(=O)N(C)C)c(C5CCCC5)c4n3)nc2)CC1 [Reference Compound 1, reference compound] and print it.
0.103

Kindly indicate its recorded AUC(0-inf). Item: CCN1CCC(N2CCN(c3ccc(Nc4ncc5sc(C(=O)N(C)C)c(C6CCCC6)c5n4)nc3)CC2)CC1
7.01

Give recorded AUC(0-inf). CN1CCN(C2CCN(c3ccc(Nc4ncc5sc(C(=O)N(C)C)c(C6CCCC6)c5n4)nc3)CC2)CC1
7.52

Quickly give me recorded AUC(0-inf) for CCN1CCN(C2CCN(c3ccc(Nc4ncc5sc(C(=O)N(C)C)c(C6CCCC6)c5n4)nc3)CC2)CC1
7.34

====

So I've got a bunch of compounds here, and I need their half-life values.
Test: Pharmacokinetic properties in dogs
Type: in vivo
Conditions: dog, po; male Beagle dogs, 3 mg/kg p.o., plasma
Procedure: Each test compounds was suspended in 0.5% methylcellulose (400 cP, w/v) in water. Grouping male Beagle dogs was administered with test compound at a dose of 3 mg/kg by oral. After administering, blood samples were collected at time points of 0.25, 0.50, 1.0, 2.0, 4.0, 8.0 and 24.0 h. Standard curve was plotted based on concentrations of the samples in a suitable range, and the concentration of test compounds in plasma samples were determined by using LC-MS/MS. […]
Report the figure in h without appending any unit label.

Give the measured half-life for CCN1CCN(C2CCN(c3ccc(Nc4ncc5sc(C(=O)N(C)C)c(C6CCCC6)c5n4)nc3)CC2)CC1
13.2

Tell us which half-life value is on record for CN1CCN(C2CCN(c3ccc(Nc4ncc5sc(C(=O)N(C)C)c(C6CCCC6)c5n4)nc3)CC2)CC1
16.1

Indicate its recorded half-life; the compound in question is CCN1CCC(N2CCN(c3ccc(Nc4ncc5sc(C(=O)N(C)C)c(C6CCCC6)c5n4)nc3)CC2)CC1
26

For the compound CN1CCN(c2ccc(Nc3ncc4sc(C(=O)N(C)C)c(C5CCCC5)c4n3)nc2)CC1 [Reference Compound 1, reference compound] , give its measured half-life value.
5.36

====

Experiment: Pharmacokinetic properties in dogs
Assay type: in vivo
Conditions: dog, po; male Beagle dogs, 3 mg/kg p.o., plasma
Metric: Cmax (ng/mL)
Expressed in ng/mL, but write only the number.

Identify measured Cmax associated with CN1CCN(C2CCN(c3ccc(Nc4ncc5sc(C(=O)N(C)C)c(C6CCCC6)c5n4)nc3)CC2)CC1 [Example 5]
312

Find the measured Cmax of CCN1CCC(N2CCN(c3ccc(Nc4ncc5sc(C(=O)N(C)C)c(C6CCCC6)c5n4)nc3)CC2)CC1 [Example 2] and report it.
127

Tell me its Cmax given CCN1CCN(C2CCN(c3ccc(Nc4ncc5sc(C(=O)N(C)C)c(C6CCCC6)c5n4)nc3)CC2)CC1 [Example 6] as the entry.
404

Quote Cmax reported for CN1CCN(c2ccc(Nc3ncc4sc(C(=O)N(C)C)c(C5CCCC5)c4n3)nc2)CC1 [Reference Compound 1, reference compound] please.
36

Origin of values: patent US10835535B2
